Below: a set of entries, each annotated with reported IC50 for inhibition of collagen induced platelet aggregation (human PRP), Test 1.
Molecular target: T1, human GPVI on platelets (human, UniProt Q9HCN6 21-339)
T1 sequence (looked up): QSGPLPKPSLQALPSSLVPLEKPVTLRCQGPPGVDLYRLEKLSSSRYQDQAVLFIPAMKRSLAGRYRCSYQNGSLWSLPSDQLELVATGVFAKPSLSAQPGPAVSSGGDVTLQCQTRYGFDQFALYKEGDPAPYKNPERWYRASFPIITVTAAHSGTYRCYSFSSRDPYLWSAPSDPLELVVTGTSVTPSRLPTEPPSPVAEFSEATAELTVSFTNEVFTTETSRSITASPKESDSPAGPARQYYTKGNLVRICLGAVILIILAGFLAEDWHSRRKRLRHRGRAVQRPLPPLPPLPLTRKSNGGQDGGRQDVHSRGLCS
Test: cell-based or functional assay
measured-endpoint: IC50 for inhibition of collagen induced platelet aggregation (human PRP), Test 1 (µg/mL)

binder	endpoint-result
humanized anti-GPVI Fab VL2/VH2 (Fab, V domains shown, Recombinant Fab: VH fused to CH1 of human IGHG1 (Q569F4), HC ends in DKTHT; VL fused to human constant kappa (Q502W4); also called VL2 with VH2) VH: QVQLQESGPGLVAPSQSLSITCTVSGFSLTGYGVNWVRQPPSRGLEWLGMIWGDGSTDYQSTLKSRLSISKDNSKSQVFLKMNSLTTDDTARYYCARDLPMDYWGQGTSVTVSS VL: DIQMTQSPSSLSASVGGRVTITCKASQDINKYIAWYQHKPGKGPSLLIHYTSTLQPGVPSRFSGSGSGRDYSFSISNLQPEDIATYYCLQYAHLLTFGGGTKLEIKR	1.4
humanized anti-GPVI Fab VL1/VH5 (Fab, V domains shown, Recombinant Fab: VH fused to CH1 of human IGHG1 (Q569F4), HC ends in DKTHT; VL fused to human constant kappa (Q502W4); also called VL1 with VH5) VH: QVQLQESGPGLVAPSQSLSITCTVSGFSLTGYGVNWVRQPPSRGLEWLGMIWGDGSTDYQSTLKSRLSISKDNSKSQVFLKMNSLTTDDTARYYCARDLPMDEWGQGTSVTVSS VL: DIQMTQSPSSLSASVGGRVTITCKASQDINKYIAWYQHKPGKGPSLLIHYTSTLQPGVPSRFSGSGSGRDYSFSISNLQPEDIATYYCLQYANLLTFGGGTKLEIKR	1.9
humanized anti-GPVI Fab VL1/VH4 (Fab, V domains shown, Recombinant Fab: VH fused to CH1 of human IGHG1 (Q569F4), HC ends in DKTHT; VL fused to human constant kappa (Q502W4); also called VL1 with VH4) VH: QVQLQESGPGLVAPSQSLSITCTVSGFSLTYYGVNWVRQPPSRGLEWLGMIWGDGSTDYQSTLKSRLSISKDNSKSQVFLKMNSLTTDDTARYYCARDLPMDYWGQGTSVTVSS VL: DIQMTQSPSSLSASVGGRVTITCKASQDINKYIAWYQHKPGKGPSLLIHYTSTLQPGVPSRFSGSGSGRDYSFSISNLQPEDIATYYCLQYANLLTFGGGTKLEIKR	1.6
humanized anti-GPVI Fab VL1/VH1 (Fab, V domains shown, Recombinant Fab: VH fused to CH1 of human IGHG1 (Q569F4), HC ends in DKTHT; VL fused to human constant kappa (Q502W4); also called VL1 with VH1) VH: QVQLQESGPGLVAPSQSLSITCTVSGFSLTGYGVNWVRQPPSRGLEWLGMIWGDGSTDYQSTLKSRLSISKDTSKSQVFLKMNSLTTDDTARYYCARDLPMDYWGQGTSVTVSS VL: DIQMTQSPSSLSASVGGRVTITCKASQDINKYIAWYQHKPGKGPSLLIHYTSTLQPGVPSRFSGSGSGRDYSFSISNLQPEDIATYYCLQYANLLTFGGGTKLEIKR	1.5
